Kd values for the binders below.
Biological target: Feline_OSMR_hlgG1_Fc (feline)
Sequence (chain, as listed by the source limits assumed, form in doubt): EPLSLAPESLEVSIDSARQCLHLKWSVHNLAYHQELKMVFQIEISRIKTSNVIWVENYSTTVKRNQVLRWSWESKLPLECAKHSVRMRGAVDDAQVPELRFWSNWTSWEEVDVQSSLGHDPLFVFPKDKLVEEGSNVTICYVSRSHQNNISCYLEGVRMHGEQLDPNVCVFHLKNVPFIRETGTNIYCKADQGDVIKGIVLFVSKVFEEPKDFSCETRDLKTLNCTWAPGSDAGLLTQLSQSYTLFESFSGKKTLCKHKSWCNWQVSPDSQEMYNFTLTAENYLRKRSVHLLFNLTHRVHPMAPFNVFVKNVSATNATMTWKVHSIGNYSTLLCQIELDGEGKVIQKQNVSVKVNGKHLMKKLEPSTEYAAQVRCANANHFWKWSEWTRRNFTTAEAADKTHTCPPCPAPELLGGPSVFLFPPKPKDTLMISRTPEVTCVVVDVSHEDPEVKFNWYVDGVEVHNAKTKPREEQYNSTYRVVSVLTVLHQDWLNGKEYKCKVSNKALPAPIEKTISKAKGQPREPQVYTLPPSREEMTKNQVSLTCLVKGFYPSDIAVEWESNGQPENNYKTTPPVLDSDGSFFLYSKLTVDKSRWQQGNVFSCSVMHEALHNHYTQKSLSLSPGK
Assay: SPR Biacore, OSMR on chip
Field format: number, assumed nM, no unit text.

Recorded Kd, per entry:
>  <binder>
Mu_19F07 (antibody, V domains shown) VH: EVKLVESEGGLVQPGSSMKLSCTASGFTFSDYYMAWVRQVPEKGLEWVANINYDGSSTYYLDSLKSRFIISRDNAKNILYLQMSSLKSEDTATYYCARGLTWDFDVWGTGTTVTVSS VL: DIVMTQSHKFMSPSVGDRVSITCKASQDVDTAVAWYQQKPGQSPKLLIYLASTRHTGVPDRFTGSGSGTDFTLTISNVQSEDLADYFCQQYSRFPLTFGAGTKLELK

>  <measure unit>
nM

>  <Kd>
0.0207

$$$$
>  <binder>
Mu_09E09 (antibody, V domains shown) VH: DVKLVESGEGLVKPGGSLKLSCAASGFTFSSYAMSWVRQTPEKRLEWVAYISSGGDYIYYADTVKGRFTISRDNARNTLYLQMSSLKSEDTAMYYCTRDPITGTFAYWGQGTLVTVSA VL: DLQMTQTTSSLSASLGDRVTISCRASQDINNYLNWYQQKPDGTVKLLIYYTSTLHSGVPSRFSGSGSGTDYSLTISNLEQEDIATYFCQQGNTLPWTFGGGTKLEIK

>  <measure unit>
nM

>  <Kd>
3.75

$$$$
>  <binder>
mouse: canine 09E09 chimera (antibody, V domains shown) VH: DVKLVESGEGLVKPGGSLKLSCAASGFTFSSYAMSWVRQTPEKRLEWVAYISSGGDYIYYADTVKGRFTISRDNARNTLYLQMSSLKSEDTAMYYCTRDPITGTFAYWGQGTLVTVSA VL: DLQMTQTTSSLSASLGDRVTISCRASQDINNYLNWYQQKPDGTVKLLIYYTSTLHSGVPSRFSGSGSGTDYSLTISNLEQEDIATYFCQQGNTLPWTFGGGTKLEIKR

>  <measure unit>
nM

>  <Kd>
2.37

$$$$
>  <binder>
mouse: canine 02D09 chimera (antibody, V domains shown) VH: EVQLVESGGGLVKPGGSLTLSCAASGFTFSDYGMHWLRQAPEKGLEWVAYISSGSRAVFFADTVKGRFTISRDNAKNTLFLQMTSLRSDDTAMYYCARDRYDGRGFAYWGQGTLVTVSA VL: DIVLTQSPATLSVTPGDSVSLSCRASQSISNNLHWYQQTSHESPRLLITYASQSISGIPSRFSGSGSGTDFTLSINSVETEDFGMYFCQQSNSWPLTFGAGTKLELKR

>  <measure unit>
nM

>  <Kd>
6.65

$$$$
>  <binder>
Mu_10F07 (antibody, V domains shown) VH: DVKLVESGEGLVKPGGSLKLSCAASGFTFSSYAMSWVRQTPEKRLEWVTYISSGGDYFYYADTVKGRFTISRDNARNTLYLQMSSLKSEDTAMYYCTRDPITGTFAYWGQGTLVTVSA VL: DIQMTQTTSSLSASLGDRVTISCRASQDITNYLNWYQQKPDGTVKLLIYYTSTLHSGVPSRFSGSGSGTDFSLTISNLEQEDIATYFCQQGHMLPWTFGGGTKLEIK

>  <measure unit>
nM

>  <Kd>
1.59

$$$$
>  <binder>
Mu_02D09 (antibody, V domains shown) VH: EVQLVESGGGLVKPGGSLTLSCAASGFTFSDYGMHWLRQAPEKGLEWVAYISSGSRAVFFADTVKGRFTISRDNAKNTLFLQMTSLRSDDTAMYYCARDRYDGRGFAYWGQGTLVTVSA VL: DIVLTQSPATLSVTPGDSVSLSCRASQSISNNLHWYQQTSHESPRLLITYASQSISGIPSRFSGSGSGTDFTLSINSVETEDFGMYFCQQSNSWPLTFGAGTKLELK

>  <measure unit>
nM

>  <Kd>
8.96

$$$$
>  <binder>
mouse: canine 10F07 chimera (antibody, V domains shown) VH: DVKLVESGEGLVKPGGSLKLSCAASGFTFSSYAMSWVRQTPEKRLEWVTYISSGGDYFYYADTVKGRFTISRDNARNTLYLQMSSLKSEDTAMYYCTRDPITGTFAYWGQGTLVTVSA VL: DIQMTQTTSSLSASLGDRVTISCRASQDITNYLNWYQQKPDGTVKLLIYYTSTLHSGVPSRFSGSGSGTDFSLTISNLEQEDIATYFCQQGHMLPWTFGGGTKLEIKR

>  <measure unit>
nM

>  <Kd>
0.022

$$$$

What Kd value was documented for this binder, mouse: canine 19F07 chimera (antibody, V domains shown) VH: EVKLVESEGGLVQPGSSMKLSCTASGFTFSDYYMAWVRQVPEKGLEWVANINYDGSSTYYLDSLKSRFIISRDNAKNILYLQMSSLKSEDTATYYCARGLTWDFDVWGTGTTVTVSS VL: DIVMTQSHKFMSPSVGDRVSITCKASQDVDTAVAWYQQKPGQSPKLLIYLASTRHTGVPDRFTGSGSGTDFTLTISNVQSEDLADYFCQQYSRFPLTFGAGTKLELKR ?
44.5
